Assignment: determine reported DC50 for the given compounds.
Biological target: GSPT1 (Homo sapiens, UniProt P15170+Q96SW2)
Sequence (P15170 whole entry): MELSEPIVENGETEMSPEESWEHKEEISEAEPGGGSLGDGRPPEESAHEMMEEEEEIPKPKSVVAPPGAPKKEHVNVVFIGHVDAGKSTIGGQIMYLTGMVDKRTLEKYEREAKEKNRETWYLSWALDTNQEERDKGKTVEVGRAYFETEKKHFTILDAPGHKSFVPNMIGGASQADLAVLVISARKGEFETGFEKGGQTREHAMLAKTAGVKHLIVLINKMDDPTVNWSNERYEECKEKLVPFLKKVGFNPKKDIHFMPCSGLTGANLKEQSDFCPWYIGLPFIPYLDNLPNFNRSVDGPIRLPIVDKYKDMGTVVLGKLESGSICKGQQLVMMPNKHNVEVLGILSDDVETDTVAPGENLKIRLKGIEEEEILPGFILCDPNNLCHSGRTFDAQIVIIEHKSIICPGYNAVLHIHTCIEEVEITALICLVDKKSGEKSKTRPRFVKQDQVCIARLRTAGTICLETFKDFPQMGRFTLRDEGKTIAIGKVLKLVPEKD
Sequence (Q96SW2 whole entry): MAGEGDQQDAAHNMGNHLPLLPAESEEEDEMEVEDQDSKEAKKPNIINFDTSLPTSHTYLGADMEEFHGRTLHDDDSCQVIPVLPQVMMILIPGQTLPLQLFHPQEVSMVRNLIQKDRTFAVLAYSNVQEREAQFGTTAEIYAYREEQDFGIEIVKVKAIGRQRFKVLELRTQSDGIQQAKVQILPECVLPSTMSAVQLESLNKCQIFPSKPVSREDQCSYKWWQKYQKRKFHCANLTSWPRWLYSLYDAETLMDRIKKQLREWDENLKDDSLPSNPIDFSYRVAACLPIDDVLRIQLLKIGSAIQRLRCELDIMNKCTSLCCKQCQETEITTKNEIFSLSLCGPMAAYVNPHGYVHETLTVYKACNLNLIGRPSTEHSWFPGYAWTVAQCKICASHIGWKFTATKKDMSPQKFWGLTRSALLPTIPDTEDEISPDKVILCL
Sequence (Q16531 whole entry partner): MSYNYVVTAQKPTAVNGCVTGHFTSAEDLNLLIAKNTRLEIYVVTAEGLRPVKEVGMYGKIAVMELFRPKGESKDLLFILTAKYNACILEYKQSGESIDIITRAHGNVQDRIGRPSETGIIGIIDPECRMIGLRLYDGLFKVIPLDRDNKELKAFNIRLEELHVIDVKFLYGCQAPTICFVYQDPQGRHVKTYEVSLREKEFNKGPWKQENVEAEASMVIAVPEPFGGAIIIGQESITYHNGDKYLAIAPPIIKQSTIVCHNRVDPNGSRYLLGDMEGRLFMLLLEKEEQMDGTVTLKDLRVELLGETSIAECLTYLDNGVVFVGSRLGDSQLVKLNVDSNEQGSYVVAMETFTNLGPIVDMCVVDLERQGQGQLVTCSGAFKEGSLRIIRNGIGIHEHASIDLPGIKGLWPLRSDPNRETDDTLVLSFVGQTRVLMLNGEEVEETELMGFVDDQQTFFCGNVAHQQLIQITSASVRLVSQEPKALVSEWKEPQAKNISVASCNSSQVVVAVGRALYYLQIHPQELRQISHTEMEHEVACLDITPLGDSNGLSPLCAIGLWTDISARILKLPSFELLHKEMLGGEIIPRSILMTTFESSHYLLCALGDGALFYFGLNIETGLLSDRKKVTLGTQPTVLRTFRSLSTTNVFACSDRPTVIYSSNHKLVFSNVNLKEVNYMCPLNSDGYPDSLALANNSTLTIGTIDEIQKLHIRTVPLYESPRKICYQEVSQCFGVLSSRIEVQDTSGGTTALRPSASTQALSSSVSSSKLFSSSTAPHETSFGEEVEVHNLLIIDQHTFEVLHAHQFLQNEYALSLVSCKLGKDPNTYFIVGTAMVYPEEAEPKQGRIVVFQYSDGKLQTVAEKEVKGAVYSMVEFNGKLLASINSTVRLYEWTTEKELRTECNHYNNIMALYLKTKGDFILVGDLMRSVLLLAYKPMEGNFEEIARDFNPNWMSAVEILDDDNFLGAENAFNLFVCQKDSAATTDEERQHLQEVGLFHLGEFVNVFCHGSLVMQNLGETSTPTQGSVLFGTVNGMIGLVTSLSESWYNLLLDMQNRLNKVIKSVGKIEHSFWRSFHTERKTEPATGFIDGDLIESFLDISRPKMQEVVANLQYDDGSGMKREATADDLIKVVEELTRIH
Test: Immunofluorescence assay for GSPT1 degradation in CAL-Si cells
Format: cell-based
Set-up: CAL-Si cells were purchased from DSMZ (cat. Number ACC302); host or cells: CAL-Si (CAL-51) cells
Settings: 6 hours treatment, read-out: Code: activity for GSPT1 degradation (DC50)

Name the recorded DC50 for O=C1CCC(N2Cc3ccc(CCC(=O)NC4CCCC4)cc3C2=O)C(=O)N1 (centres unmarked) [Compound 17] . > 300 nM

Which value of DC50 has been reported for O=C1CCC(N2Cc3ccc(CCC(=O)Nc4ccc5c(c4)OCC5)cc3C2=O)C(=O)N1 (centres unmarked) [Compound 26] in the records? > 300 nM

Endpoint output: DC50 of Cc1ccc(NC(=O)CCc2ccc3c(c2)C(=O)N(C2CCC(=O)NC2=O)C3)cc1OC(F)F (centres unmarked) [Compound 29] . Value? ≤ 30 nM

Item CC(C)CCNC(=O)CCc1ccc2c(c1)C(=O)N(C1CCC(=O)NC1=O)C2 (centres unmarked) [Compound 6] has what recorded DC50? > 300 nM

Look at this compound and give its reported DC50. Cc1c(Cl)cc(NC(=O)CNc2ccc3c(c2)C(=O)N(C2CCC(=O)NC2=O)C3)cc1CN1CCOCC1 (centres unmarked) [Compound 67] > 300 nM

Fill in the blank: the reported DC50 of COc1cc(C)c(Cl)cc1NC(=O)CCc1ccc2c(c1)C(=O)N(C1CCC(=O)NC1=O)C2 (centres unmarked) [Compound 10] is ____. > 300 nM

What does the record list as DC50 for O=C1CCC(N2Cc3ccc(CCC(=O)Nc4cc(F)cc(OC(F)F)c4)cc3C2=O)C(=O)N1 (centres unmarked) [Compound 28] ? 30 to 300 nM

I am curious: what DC50 value has been reported for COc1cc(Cl)ccc1NC(=O)CCc1ccc2c(c1)C(=O)N(C1CCC(=O)NC1=O)C2 (centres unmarked) [Compound 16] ? > 300 nM
